# system.tested: human full-length recombinant PKC βII (Homo sapiens)
# Construct: Active human full-length recombinant PKC βII; purchased Invitrogen GmbH, Darmstadt, Germany
# Sequence (P05771 1-673 isoform P05771-2): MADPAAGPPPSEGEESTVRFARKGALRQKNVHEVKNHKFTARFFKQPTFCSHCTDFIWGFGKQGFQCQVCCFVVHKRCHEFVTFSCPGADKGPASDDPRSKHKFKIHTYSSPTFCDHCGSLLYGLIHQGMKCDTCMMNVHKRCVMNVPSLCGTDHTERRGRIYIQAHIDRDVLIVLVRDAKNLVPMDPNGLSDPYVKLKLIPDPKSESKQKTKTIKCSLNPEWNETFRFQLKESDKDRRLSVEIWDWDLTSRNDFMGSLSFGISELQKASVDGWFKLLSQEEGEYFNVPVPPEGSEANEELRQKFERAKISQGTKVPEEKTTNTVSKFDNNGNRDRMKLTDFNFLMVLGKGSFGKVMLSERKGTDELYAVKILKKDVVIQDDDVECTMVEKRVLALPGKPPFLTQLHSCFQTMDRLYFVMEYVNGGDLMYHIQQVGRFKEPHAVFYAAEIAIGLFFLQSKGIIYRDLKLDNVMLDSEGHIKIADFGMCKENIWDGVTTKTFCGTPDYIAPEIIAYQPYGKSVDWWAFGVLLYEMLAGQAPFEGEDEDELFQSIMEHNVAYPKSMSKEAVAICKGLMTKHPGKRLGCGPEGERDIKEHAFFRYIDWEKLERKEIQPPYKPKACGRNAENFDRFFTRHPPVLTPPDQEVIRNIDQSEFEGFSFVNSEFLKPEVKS
# test.name: Determination of PKC βII inhibition (Caliper mobility-shift kinase assay)
# Format: biochemical
# experimental.conditions: example compounds at a final concentration of 1.14 μM (±0.15 μM); 60 min incubation at 32° C.
# Experimental: Determination of PKC 3H Inhibition PKC βII inhibition was determined according to the following protocol: […] Test compounds were diluted to three times the test concentration in buffer 1 (30 mM Hepes-NaOH, pH 7.4, 0.01% Pluronic F-68 and 3% (v/v) DMSO). […] Fractional turnover (R) was determined as the height of the peak of the phosphorylated peptide product divided by the sum of the unphosphorylated substrate and phosphorylated product peak heights. […]
endpoint.label: inhibition at 1.14 µM (%)
Numbers only, in %.

• O=C(NC1CC2(CCNCC2)c2ccccc21)c1cc(-c2ccc(O)cc2)nc2[nH]ncc12 (stereo not drawn) = 97
• CN1CCC(N(C)C(=O)c2cc(-c3ccc(O)cc3)nc3[nH]ncc23)CC1 = 31
• CCN1CC2CC1CN2C(=O)c1cc(-c2ccc(O)cc2)nc2[nH]ncc12 (stereo not drawn) = 46
• O=C(c1cc(-c2ccc(O)cc2)nc2[nH]ncc12)N1CCOC2(CCCNC2)C1 (stereo not drawn) = 42
• N[C@H]1CC[C@@H](CNC(=O)c2cc(-c3ccc(O)cc3)nc3[nH]ncc23)CC1 = 46

Shift focus to the following entry.
Form: molecule = N[C@H]1CC[C@@H](NC(=O)c2cc(-c3ccc(O)cc3)nc3[nH]ncc23)CC1 ; inhibition at 1.14 µM = 46
